Target: T1, Human CD27 ECD, monomeric soluble (construct limits not stated) (human, UniProt P26842 20-191)
T1 construct: extracellular domain; target of the Biacore assays; also called monomeric soluble CD27; CD27-His
T1 sequence (P26842 20-191): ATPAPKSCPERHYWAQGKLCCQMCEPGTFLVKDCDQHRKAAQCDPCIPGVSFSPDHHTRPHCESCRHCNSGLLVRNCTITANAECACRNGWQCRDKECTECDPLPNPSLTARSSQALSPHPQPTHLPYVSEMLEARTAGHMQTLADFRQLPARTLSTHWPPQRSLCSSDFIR
Experiment: Biacore SPR, purified mAb, CD27 ECD
Please provide measured Kd for the entries that follow.
Use pM as the unit, but write only the number.

Retrieve Kd measured for M492 (antibody, IgG1, V domains shown, also called H228/L249) VH: QVQLVESGGGLVKPGGSLRLSCAASGFTFSSYSMSWIRQAPGKGLEWVSYIDAGGGFTIYPDSVKGRFTISRDNAKNSLYLQMNSLRAEDTAVYYCARHRGNPFDYWGQGTLVTVSS VL: DIQMTQSPSSLSASVGDRVTITCRASKSVSEGRWSFMHWYQQKPGKAPKLLIYVASRLESGVPSRFSGSGSGTDFTFTISSLQPEDIATYYCQHSRELPWTFGQGTKVEIK and print it.
142

Indicate the recorded Kd value for this binder: M501 (antibody, IgG1, V domains shown, also called H231/L250) VH: QVQLVESGGGLVKPGGSLRLSCAASGFTFSSYSMSWIRQAPGKGLEWVSHIDAGGGRTWYPDSVKGRFTISRDNAKNSLYLQMNSLRAEDTAVYYCARHRGNPFDYWGQGTLVTVSS VL: DIQMTQSPSSLSASVGDRVTITCRASKSVSLDRWSFMHWYQQKPGKAPKLLIYLASNLESGVPSRFSGSGSGTDFTFTISSLQPEDIATYYCQHSRELPWTFGQGTKVEIK
74.2

Input M427 (antibody, IgG1, V domains shown, also called H227/L244; C27H227/C27L244) VH: QVQLVESGGGLVKPGGSLRLSCAASGFTFSSYGMSWIRQAPGKGLEWVSYIDEGGGQTIYPDSVKGRFTISRDNAKNSLYLQMNSLRAEDTAVYYCARHRGNPFDYWGQGTLVTVSS VL: DIQMTQSPSSLSASVGDRVTITCRASKSVSAWGYSFMHWYQQKPGKAPKLLIYVASRLESGVPSRFSGSGSGTDFTFTISSLQPEDIATYYCQHSRELPWTFGQGTKVEIK , output reported Kd.
41.7

Values from patent US20130243795A1
